From: patent US11939361B2

- protocol-description: clinical
- experimental-setup: human, in vivo, po, 300 mg
reported-property: half-life (h)
Report only the number, with the unit h understood.

Query: Request the reported half-life associated with CC(=O)NCCCC[C@@H]1NC(=O)[C@H](Cc2c[nH]c3c(C)cccc23)NC(=O)[C@H]([C@@H](C)O)NC(=O)[C@H](CC(N)=O)NC(=O)[C@@H](NC(C)=O)C(C)(C)SSC(C)(C)[C@@H](C(=O)N[C@@H](Cc2ccc(OCCN)cc2)C(=O)N[C@@H](Cc2ccc3ccccc3c2)C(=O)NC2(C(=O)N[C@@H](CCC(=O)O)C(=O)N[C@@H](CC(N)=O)C(=O)N[C@@H](Cc3cccnc3)C(=O)N(C)CC(N)=O)CCOCC2)NC1=O [SEQ ID NO: 1]
Reply: 9.28

====

- protocol-description: Solubility of acetate form of SEQ ID NO: 1 in various media
- Format: physicochemical
- experimental-setup: water
reported-property: solubility (mg/mL)
The answer is to be given in mg/mL; state only the numeric part.

Query: Return reported solubility; argument: CC(=O)NCCCC[C@@H]1NC(=O)[C@H](Cc2c[nH]c3c(C)cccc23)NC(=O)[C@H]([C@@H](C)O)NC(=O)[C@H](CC(N)=O)NC(=O)[C@@H](NC(C)=O)C(C)(C)SSC(C)(C)[C@@H](C(=O)N[C@@H](Cc2ccc(OCCN)cc2)C(=O)N[C@@H](Cc2ccc3ccccc3c2)C(=O)NC2(C(=O)N[C@@H](CCC(=O)O)C(=O)N[C@@H](CC(N)=O)C(=O)N[C@@H](Cc3cccnc3)C(=O)N(C)CC(N)=O)CCOCC2)NC1=O [Acetate Form of SEQ ID NO: 1]
Reply: 35

====

- protocol-description: Rat PK Study 1: intraduodenal/intracolonic dosing with absorption enhancers
- Format: in vivo, Sprague Dawley rats
- experimental-setup: male, Sprague Dawley, plasma, other: intraduodenal, 10 mg/kg, ID dose 10 mg/kg, no absorption enhancer
reported-property: AUC(0-inf) (ng·h/mL)
Quick reminder: number only, in ng·h/mL, skip the unit.

Query: # get_value(readout='AUC(0-inf)', item= CC(=O)NCCCC[C@@H]1NC(=O)[C@H](Cc2c[nH]c3c(C)cccc23)NC(=O)[C@H]([C@@H](C)O)NC(=O)[C@H](CC(N)=O)NC(=O)[C@@H](NC(C)=O)C(C)(C)SSC(C)(C)[C@@H](C(=O)N[C@@H](Cc2ccc(OCCN)cc2)C(=O)N[C@@H](Cc2ccc3ccccc3c2)C(=O)NC2(C(=O)N[C@@H](CCC(=O)O)C(=O)N[C@@H](CC(N)=O)C(=O)N[C@@H](Cc3cccnc3)C(=O)N(C)CC(N)=O)CCOCC2)NC1=O [SEQ ID NO: 1] )
Reply: 68.6

====

- protocol-description: Rat PK Study 1: intraduodenal/intracolonic dosing with absorption enhancers
- Assay type: in vivo, Sprague Dawley rats
- experimental-setup: male, Sprague Dawley, plasma, other: intracolonic, 10 mg/kg, IC dose 10 mg/kg, Labrasol 100 mg/kg
reported-property: AUC(0-t)

Query: Reported AUC(0-t) for CC(=O)NCCCC[C@@H]1NC(=O)[C@H](Cc2c[nH]c3c(C)cccc23)NC(=O)[C@H]([C@@H](C)O)NC(=O)[C@H](CC(N)=O)NC(=O)[C@@H](NC(C)=O)C(C)(C)SSC(C)(C)[C@@H](C(=O)N[C@@H](Cc2ccc(OCCN)cc2)C(=O)N[C@@H](Cc2ccc3ccccc3c2)C(=O)NC2(C(=O)N[C@@H](CCC(=O)O)C(=O)N[C@@H](CC(N)=O)C(=O)N[C@@H](Cc3cccnc3)C(=O)N(C)CC(N)=O)CCOCC2)NC1=O [SEQ ID NO: 1] : what is it?
Reply: 1100 ng·h/mL

====

- protocol-description: Rat PK Study 1: intraduodenal/intracolonic dosing with absorption enhancers
- Assay type: in vivo, Sprague Dawley rats
- experimental-setup: male, Sprague Dawley, plasma, other: intracolonic, 10 mg/kg, IC dose 10 mg/kg, Enteris A 60 mg/kg
reported-property: AUC(0-inf) (ng·h/mL)
Give your result in ng·h/mL as a bare value.

Query: # input compound: `CC(=O)NCCCC[C@@H]1NC(=O)[C@H](Cc2c[nH]c3c(C)cccc23)NC(=O)[C@H]([C@@H](C)O)NC(=O)[C@H](CC(N)=O)NC(=O)[C@@H](NC(C)=O)C(C)(C)SSC(C)(C)[C@@H](C(=O)N[C@@H](Cc2ccc(OCCN)cc2)C(=O)N[C@@H](Cc2ccc3ccccc3c2)C(=O)NC2(C(=O)N[C@@H](CCC(=O)O)C(=O)N[C@@H](CC(N)=O)C(=O)N[C@@H](Cc3cccnc3)C(=O)N(C)CC(N)=O)CCOCC2)NC1=O` ; wanted: its AUC(0-inf)
Reply: 567

====

- protocol-description: Rat PK Study 1: intraduodenal/intracolonic dosing with absorption enhancers
- Format: in vivo, Sprague Dawley rats
- experimental-setup: male, Sprague Dawley, plasma, other: intraduodenal, 10 mg/kg, ID dose 10 mg/kg, Labrasol 100 mg/kg
reported-property: Cmax

Query: Which value of Cmax has been reported for `CC(=O)NCCCC[C@@H]1NC(=O)[C@H](Cc2c[nH]c3c(C)cccc23)NC(=O)[C@H]([C@@H](C)O)NC(=O)[C@H](CC(N)=O)NC(=O)[C@@H](NC(C)=O)C(C)(C)SSC(C)(C)[C@@H](C(=O)N[C@@H](Cc2ccc(OCCN)cc2)C(=O)N[C@@H](Cc2ccc3ccccc3c2)C(=O)NC2(C(=O)N[C@@H](CCC(=O)O)C(=O)N[C@@H](CC(N)=O)C(=O)N[C@@H](Cc3cccnc3)C(=O)N(C)CC(N)=O)CCOCC2)NC1=O` in the records?
Reply: 625 ng/mL

====

- protocol-description: Colon and colonic content concentrations in rat TNBS colitis model (LC-MS/MS)
- Type: in vivo, Sprague Dawley rats
- experimental-setup: Sprague Dawley, colon content, po, 0.1 mg/kg, Study 2, 0.1 mg/kg TID oral, total daily dose 0.3 mg/kg, read-out: Mean concentration in Colon content
reported-property: tissue level at time at 168 h (ng/g)
Report only the number, with the unit ng/g understood.

Query: Give its tissue level at time at 168 h value. Item: `CC(=O)NCCCC[C@@H]1NC(=O)[C@H](Cc2c[nH]c3c(C)cccc23)NC(=O)[C@H]([C@@H](C)O)NC(=O)[C@H](CC(N)=O)NC(=O)[C@@H](NC(C)=O)C(C)(C)SSC(C)(C)[C@@H](C(=O)N[C@@H](Cc2ccc(OCCN)cc2)C(=O)N[C@@H](Cc2ccc3ccccc3c2)C(=O)NC2(C(=O)N[C@@H](CCC(=O)O)C(=O)N[C@@H](CC(N)=O)C(=O)N[C@@H](Cc3cccnc3)C(=O)N(C)CC(N)=O)CCOCC2)NC1=O`
Reply: 1990

====

- protocol-description: Rat PK Study 1: intraduodenal/intracolonic dosing with absorption enhancers
- Type: in vivo, Sprague Dawley rats
- experimental-setup: male, Sprague Dawley, plasma, other: intraduodenal, 10 mg/kg, ID dose 10 mg/kg, Sucrose laurate 100 mg/kg
reported-property: AUC(0-t)

Query: Reported AUC(0-t) for `CC(=O)NCCCC[C@@H]1NC(=O)[C@H](Cc2c[nH]c3c(C)cccc23)NC(=O)[C@H]([C@@H](C)O)NC(=O)[C@H](CC(N)=O)NC(=O)[C@@H](NC(C)=O)C(C)(C)SSC(C)(C)[C@@H](C(=O)N[C@@H](Cc2ccc(OCCN)cc2)C(=O)N[C@@H](Cc2ccc3ccccc3c2)C(=O)NC2(C(=O)N[C@@H](CCC(=O)O)C(=O)N[C@@H](CC(N)=O)C(=O)N[C@@H](Cc3cccnc3)C(=O)N(C)CC(N)=O)CCOCC2)NC1=O` : what is it?
Reply: 141 ng·h/mL

====

- protocol-description: clinical
- experimental-setup: human, in vivo, po, 1000 mg
reported-property: Tmax
A bare number is not enough; add the unit after it.

Query: Given `CC(=O)NCCCC[C@@H]1NC(=O)[C@H](Cc2c[nH]c3c(C)cccc23)NC(=O)[C@H]([C@@H](C)O)NC(=O)[C@H](CC(N)=O)NC(=O)[C@@H](NC(C)=O)C(C)(C)SSC(C)(C)[C@@H](C(=O)N[C@@H](Cc2ccc(OCCN)cc2)C(=O)N[C@@H](Cc2ccc3ccccc3c2)C(=O)NC2(C(=O)N[C@@H](CCC(=O)O)C(=O)N[C@@H](CC(N)=O)C(=O)N[C@@H](Cc3cccnc3)C(=O)N(C)CC(N)=O)CCOCC2)NC1=O` , state its recorded Tmax.
Reply: 4.5 h

====

- protocol-description: Rat PK Study 1: intraduodenal/intracolonic dosing with absorption enhancers
- Assay type: in vivo, Sprague Dawley rats
- experimental-setup: male, Sprague Dawley, plasma, other: intracolonic, 10 mg/kg, IC dose 10 mg/kg, NaC10 100 mg/kg
reported-property: AUC(0-t)
Just so you know, I need the unit written after the number.

Query: Sample `CC(=O)NCCCC[C@@H]1NC(=O)[C@H](Cc2c[nH]c3c(C)cccc23)NC(=O)[C@H]([C@@H](C)O)NC(=O)[C@H](CC(N)=O)NC(=O)[C@@H](NC(C)=O)C(C)(C)SSC(C)(C)[C@@H](C(=O)N[C@@H](Cc2ccc(OCCN)cc2)C(=O)N[C@@H](Cc2ccc3ccccc3c2)C(=O)NC2(C(=O)N[C@@H](CCC(=O)O)C(=O)N[C@@H](CC(N)=O)C(=O)N[C@@H](Cc3cccnc3)C(=O)N(C)CC(N)=O)CCOCC2)NC1=O` — what was its AUC(0-t)?
Reply: 1210 ng·h/mL
